# system_under_test: Paired box protein Pax-6 (Homo sapiens)
# test: ATG_Pax6_CIS: Attagene CIS-FACTORIAL HepG2 Assay for human Paired Box 6 (PAX6) (AID 2282956)
# measurement_context: HepG2 CIS-FACTORIAL PAX6 reporter transcription, RNA readout; actives raise or lower the signal
The source made the active and inactive calls. How the source made its calls: active means hit-call score of the fitted dose curve at least 0.9, where 1 is the maximum; inactive means score below 0.9. Peptide text beside a SMILES is read from it.
readout_type: AC50

> print(dat)
                                    molecule                        system.under.test    value.measured
 1              CCCCCCOC(=O)CCCCC(=O)OCCCCCC  Paired box protein Pax-6 (Homo sapiens)          inactive
 2  CC1CCC(C(C)(C)S)C(=O)C1 (stereo not given)  Paired box protein Pax-6 (Homo sapiens)          inactive
 3  CC(=O)/C=C/C1C(C)=CCCC1(C)C (stereo not given)  Paired box protein Pax-6 (Homo sapiens)          inactive
 4                               CCN1CCCC1=O  Paired box protein Pax-6 (Homo sapiens)          inactive
 5                     CC(C)c1cccc(C(C)C)c1N  Paired box protein Pax-6 (Homo sapiens)          inactive
 6                        [Cl][Eu]([Cl])[Cl]  Paired box protein Pax-6 (Homo sapiens)          inactive
 7                         CCC[Si](OC)(OC)OC  Paired box protein Pax-6 (Homo sapiens)          inactive
 8           Cc1ccc(C)c(OCCCC(C)(C)C(=O)O)c1  Paired box protein Pax-6 (Homo sapiens)          inactive
 9  CC1C(C)(C)C2=C(C(=O)CCC2)C1(C)C (stereo not given)  Paired box protein Pax-6 (Homo sapiens)          inactive
10                                Clc1cccnc1  Paired box protein Pax-6 (Homo sapiens)          inactive
11               CC(C)c1cc(C(C)C)cc(C(C)C)c1  Paired box protein Pax-6 (Homo sapiens)   159 µM (active)
12  CC(C)(C)NC(=O)[C@H]1CC[C@H]2[C@@H]3CC[C@H]4NC(=O)C=C[C@]4(C)[C@H]3CC[C@]12C  Paired box protein Pax-6 (Homo sapiens)          inactive
13  COC(=O)CC(C)CCC=C(C)C (stereo not given)  Paired box protein Pax-6 (Homo sapiens)          inactive
14                        CCCCOC(=O)CCC(C)=O  Paired box protein Pax-6 (Homo sapiens)          inactive
15                 CC(C)(CO)COC(=O)C(C)(C)CO  Paired box protein Pax-6 (Homo sapiens)          inactive
16                       Oc1ccccc1Cc1ccccc1O  Paired box protein Pax-6 (Homo sapiens)   100 µM (active)
17                                 CC(C)(C)N  Paired box protein Pax-6 (Homo sapiens)          inactive
18  CC1=CP(=O)(c2ccccc2)CC1 (stereo not given)  Paired box protein Pax-6 (Homo sapiens)          inactive
19        CC(C=O)c1ccccc1 (stereo not given)  Paired box protein Pax-6 (Homo sapiens)          inactive
20          COc1ccc(C(=O)/C(Br)=C\C(=O)O)cc1  Paired box protein Pax-6 (Homo sapiens)  57.1 µM (active)
21              COc1ccc(C(=O)c2ccccc2)c(O)c1  Paired box protein Pax-6 (Homo sapiens)   149 µM (active)
22                 CCCCNS(=O)(=O)c1ccc(C)cc1  Paired box protein Pax-6 (Homo sapiens)          inactive
23                                 CC(C)=CCl  Paired box protein Pax-6 (Homo sapiens)          inactive
24                            c1ccc2cnccc2c1  Paired box protein Pax-6 (Homo sapiens)          inactive
25  CCc1cccc(C)c1N(C(=O)CS(=O)(=O)O)C(C)COC (stereo not given)  Paired box protein Pax-6 (Homo sapiens)          inactive
26                        C/C=C/C=C/CCCCCCCO  Paired box protein Pax-6 (Homo sapiens)    76 µM (active)
27  COC(=O)[C@H](Cc1ccccc1)NC(=O)[C@@H](N)CC(=O)O (H-Asp-Phe-OMe)  Paired box protein Pax-6 (Homo sapiens)          inactive
28                    CCCCNS(=O)(=O)c1ccccc1  Paired box protein Pax-6 (Homo sapiens)          inactive
29            COC(OC)(C(=O)c1ccccc1)c1ccccc1  Paired box protein Pax-6 (Homo sapiens)    66 µM (active)
30                O=C(OCc1ccccc1)c1ccc(O)cc1  Paired box protein Pax-6 (Homo sapiens)   144 µM (active)
